assay system: mouse Oat1 (mOat1; Oat1/Slc22a6) (Mus musculus)
Sequence (Q8VC69 whole entry): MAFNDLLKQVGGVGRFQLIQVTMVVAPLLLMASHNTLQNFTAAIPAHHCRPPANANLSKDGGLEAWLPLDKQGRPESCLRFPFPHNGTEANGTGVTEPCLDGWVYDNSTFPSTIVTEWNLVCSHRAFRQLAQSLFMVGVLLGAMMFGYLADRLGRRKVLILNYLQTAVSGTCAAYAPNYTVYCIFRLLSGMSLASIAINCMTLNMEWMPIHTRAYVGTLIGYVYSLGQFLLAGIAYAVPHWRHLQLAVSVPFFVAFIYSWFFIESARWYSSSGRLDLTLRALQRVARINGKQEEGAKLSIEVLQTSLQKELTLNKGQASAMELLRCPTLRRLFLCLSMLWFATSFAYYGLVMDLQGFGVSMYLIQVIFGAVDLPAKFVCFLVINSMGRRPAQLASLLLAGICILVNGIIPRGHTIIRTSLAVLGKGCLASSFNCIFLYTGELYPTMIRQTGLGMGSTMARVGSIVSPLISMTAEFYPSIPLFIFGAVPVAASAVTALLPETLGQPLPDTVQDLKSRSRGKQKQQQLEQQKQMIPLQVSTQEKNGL
test method notes: inhibition of 6-carboxyfluorescein uptake, Xenopus oocytes
Assay type: cell-based
test settings: 30 μM 6-carboxyfluorescein tracer, 1 h incubation
readout kind: IC50 (µM)
Numbers only; they are read as µM.

Lookup: Please look up its IC50: `O=c1c2ncccc2[nH]c2c([N+](=O)[O-])c(O)c([N+](=O)[O-])c(O)c12`
Found: 22

---

assay system: mouse Oat1 (mOat1; Oat1/Slc22a6) (Mus musculus)
test method notes: inhibition of 6-carboxyfluorescein uptake, Xenopus oocytes
Format: cell-based
readout kind: pIC50
# pIC50 is unitless: minus log10 of the molar concentration; print number only

Nc1ccccc1C(=O)C[C@H](N)C(=O)O :: 4.92

Query compound follows.
Lookup: Form entry - test system: mouse Oat1 (mOat1; Oat1/Slc22a6) (Mus musculus); read-out: pIC50; compound: `O=C(O)c1cc(O)c2cccc(O)c2n1`
Found: 4.30

Values compiled from paper PMC3201759.
